Attribute: melting point

Reference set, count: 5
>  <compound>
Cc1nn(-c2ccccn2)c2c1C(=O)CC(C)(C)C2S(=O)(=O)c1ccccc1 (centres undefined)

>  <melting point>
165 to 166 °C

$$$$
>  <compound>
O=C(NCCSCc1cccc(Br)c1)c1c(Br)cccc1Br

>  <melting point>
70 to 72 °C

$$$$
>  <compound>
CCn1c(N)c(C(N)=O)c(=O)c2ccc(-c3ccncc3)cc21

>  <melting point>
> 300 °C

$$$$
>  <compound>
CCOC(=O)NCc1cc(-c2ccccc2)no1

>  <melting point>
82 °C

$$$$
>  <compound>
CC(C)(C)OC(=O)Nc1cccc(C2(O)CCOCC2)c1

>  <melting point>
140 to 142 °C

$$$$

--- query ---
Entry under test: FC(F)(F)c1cccc(Nc2nc3ccccc3o2)c1 . Its melting point was 193 to 194 °C

---

Attribute: melting point

Reference set, count: 4
>  <compound>
O=C(Nc1ccc(-n2nc(C(F)(F)F)cc2C(F)(F)F)cc1)N1CCOCC1

>  <measurement-name>
melting point

>  <result>
185 to 186 °C

$$$$
>  <compound>
N#Cc1ccc(C2CC(=O)N(CC3CC3)Cc3cncn32)cc1 (stereo not given)

>  <measurement-name>
melting point

>  <result>
178 to 180 °C

$$$$
>  <compound>
CC1(C)CC(=O)c2c(NCc3ccccc3)sc(-c3cc[nH]n3)c2C1

>  <measurement-name>
melting point

>  <result>
204 to 206 °C

$$$$
>  <compound>
Cc1ccccc1C(=O)N(C)c1ccc(C(=O)O)cc1

>  <measurement-name>
melting point

>  <result>
187 to 190 °C

$$$$

--- query ---
Entry under test: O=C(NC(c1ccccc1)c1ccccc1)[C@H]1Cc2c([nH]c3ccccc23)CN1 . Its melting point was 191 to 196 °C

---

measurement-name: melting point

Entry under test: CN1CCC(c2c[nH]c3ccc(NC(=O)c4cc5ccccc5s4)nc23)CC1 . Its melting point was 202 to 204 °C

Entry under test: COc1ccc2c(c1)CCC(=CO)C2=O . Its melting point was 66 to 68 °C

Entry under test: CCCC1=C(C#N)C(c2cccc(C#N)c2Cl)c2c[nH]nc2N1 (stereo unspecified) . Its melting point was > 250 °C

Entry under test: O=C1C=C/C(=C/c2ccc(F)cc2)O1 . Its melting point was 140 to 142 °C

Entry under test: CC(C)(Oc1ccc(CC(=O)Nc2ccccc2)cc1)C(=O)O . Its melting point was 198 °C

Entry under test: N#CC(N)c1cccc(Cl)c1 (stereo unspecified) . Its melting point was 31 to 33 °C

Entry under test: Cc1cccc(-c2nccc(-c3ccccc3C)n2)n1 . Its melting point was 119 °C

Entry under test: Cc1sc(S(N)(=O)=O)cc1NC(=O)c1cnn2c(C(F)(F)F)cc(-c3ccc(C(F)(F)F)cc3)nc12 . Its melting point was 297 °C

Entry under test: O=CNc1ccc(-c2c[nH]cn2)cc1 . Its melting point was 108 to 109 °C

Entry under test: N#CC(N)=C(C#N)N=Cc1cnn(-c2c(Cl)cc(C(F)(F)F)cc2Cl)n1 . Its melting point was 234 to 235 °C

---

Attribute: melting point

Reference set, count: 5
>  <compound>
NC1CCn2c(CCc3ccccc3)nc3cccc1c32 (configuration not stated)

>  <measurement-name>
melting point

>  <result>
43.6 to 45.6 °C

$$$$
>  <compound>
CCOC(=O)C(C#N)=Cc1cc(OC)c(N)c(OC)c1

>  <measurement-name>
melting point

>  <result>
77 to 78 °C

$$$$
>  <compound>
O=C(c1cccc(OC(F)(F)F)c1)N1CCc2cc(S(=O)(=O)N3CC(c4ccccc4)NC3=O)ccc21 (configuration not stated)

>  <measurement-name>
melting point

>  <result>
129 to 131 °C

$$$$
>  <compound>
COc1cc(Nc2c(C#N)cnc3cc(/C=C/CCN4CCN(C)CC4)c(OC)cc23)c(Cl)cc1Cl

>  <measurement-name>
melting point

>  <result>
142 to 143 °C

$$$$
>  <compound>
CCOC(=O)[C@](CC(=O)OC1CC(C)CCC1C(C)C)(NC(=O)OCc1ccccc1)C(N)=O (some centres not stated)

>  <measurement-name>
melting point

>  <result>
124 °C

$$$$

Entry under test: ClCc1ccc(OCCCCc2ccccc2)cc1 . Its melting point was 60 to 62 °C

Entry under test: COCCOCOc1ccc2cc(C(=O)O)ccc2c1 . Its melting point was 110 °C

---

measurement-name: melting point

Reference set, count: 10
>  <compound>
CCOC(=O)n1nc(-c2cccc(OC)c2)nc1-c1ccccc1CC

>  <melting point>
80 to 82 °C

$$$$
>  <compound>
Cc1cc(N2CCC(CN3CCN(S(=O)(=O)c4ccc(Cl)cc4)CC3)CC2)nc(C)n1

>  <melting point>
73 to 74 °C

$$$$
>  <compound>
O=C(O)COc1ccc(-c2cc(O)c(Sc3ccccc3)c(=O)o2)cc1

>  <melting point>
186 to 188 °C

$$$$
>  <compound>
CC(C)Cn1c(=O)n(C)c(=O)c2c(Br)c(C(=O)c3nc4ccccc4n3C)sc21

>  <melting point>
258 °C

$$$$
>  <compound>
Cc1ccc(N2CCOCC2)c(N=C=S)c1

>  <melting point>
91 to 92 °C

$$$$
>  <compound>
O=C(O)Cc1ccc(OCCNC(=O)C2Cc3ccccc3N2S(=O)(=O)c2ccc(-c3cccc(C(F)(F)F)c3)cc2)cc1 (configuration not stated)

>  <melting point>
92 °C

$$$$
>  <compound>
Cc1ccc(S(=O)(=O)NC2CCCCNC2=O)cc1 (configuration not stated)

>  <melting point>
180 °C

$$$$
>  <compound>
CCN(C)C(=O)C(C)n1cc(C)c(-c2ccccc2)n1 (configuration not stated)

>  <melting point>
59 to 61 °C

$$$$
>  <compound>
COc1cccc(Oc2c(NS(=O)(=O)c3ccc(C(C)(C)C)cc3)ncnc2OCCCO)c1

>  <melting point>
113 to 114 °C

$$$$
>  <compound>
O=C1N=C(N2CCOCC2)SC1=Cc1cc(-c2ccc(O)c(C34CC5CC(CC(C5)C3)C4)c2)ccc1O

>  <melting point>
325 to 330 °C

$$$$

Entry under test: CC1(C)COc2ccc(S(=O)(=O)n3c(Cc4ccccc4C(=O)O)cc4cc(Cl)ccc43)cc21 . Its melting point was 190 °C

Entry under test: CC1N=C2N(Cc3ccc(Cl)cc3)c3[nH]cnc3C(=O)N2C1C (configuration not stated) . Its melting point was 252 to 254 °C

---

Attribute: melting point

>  <compound>
CC[C@H](Cn1cnnn1)n1cnc2cc3c(=O)n([C@H](CC)Cn4cnnn4)nnc3cc2c1=O

>  <melting point>
80 to 81 °C

$$$$
>  <compound>
CN(C)C1(c2ccccc2)CCC(CNC(=O)N2CCC(c3c[nH]c4ccc(F)cc34)CC2)CC1 (stereo not drawn)

>  <melting point>
95 to 98 °C

$$$$

--- query ---
Entry under test: CCCCOc1cc2c(cc1C(=O)NC)CC(N(CCC)CCC)C2 (stereo not drawn) . Its melting point was 129 to 130 °C

---

Attribute: melting point

Reference set, count: 3
>  <smiles-code>
CC(C)(C)c1ccc(/C=C/C(=O)Nc2ccc3c(c2)NCCC3)cc1

>  <melting point>
225 to 227 °C

$$$$
>  <smiles-code>
COc1ccc(C=CC(=O)O)cc1C=O

>  <melting point>
223 to 225 °C

$$$$
>  <smiles-code>
Cn1ncc2nn(-c3cccc(C(F)(F)F)c3)c(=O)cc21

>  <melting point>
160 to 163 °C

$$$$

Entry under test: CCOC(=O)C(=O)Nc1cccc(OCc2ccccc2)c1C(N)=O . Its melting point was 151 to 153 °C

Entry under test: Cc1ccc(N2C(=O)NC(=O)C23CCN(C(=O)c2ccccc2)CC3)cc1 . Its melting point was 242 to 244 °C

Entry under test: COc1ccc(C(=O)Nc2cccc(Cl)c2)cc1N . Its melting point was 144 to 146 °C

---

Attribute: melting point

Reference set, count: 8
>  <molecule>
COc1ccc(/C=C/C(=O)/C=C/c2ccc(OC)c(O)c2)cc1O

>  <result>
195 to 197 °C

$$$$
>  <molecule>
CCn1nc(-c2ccc3cc(O)ccc3c2)c2ccc(O)cc21

>  <result>
146 to 148 °C

$$$$
>  <molecule>
CN1CCC(N(C)C(=O)c2ccc3nonc3c2)CC1

>  <result>
> 260 °C

$$$$
>  <molecule>
O=C1Nc2ccccc2N(C(=O)CN2CCCCC2CN2CCCC2)c2ccccc21 (configuration not stated)

>  <result>
199 to 201 °C

$$$$
>  <molecule>
O[C@H]1c2cc(Oc3ccccn3)ccc2OC[C@H]1Cc1cccnc1 (relative stereo)

>  <result>
67 to 68 °C

$$$$
>  <molecule>
COc1ccccc1NC(=O)CN1CCN(c2ncccc2C#N)CC1

>  <result>
174 to 175 °C

$$$$
>  <molecule>
CC(=O)Nc1ncc(SCC(=O)OC(C)(C)C)s1

>  <result>
162 to 163 °C

$$$$
>  <molecule>
CCN1C(=O)CON(C(C)=O)C1c1ccccc1 (configuration not stated)

>  <result>
130 to 132 °C

$$$$

Entry under test: CCOC(=O)/C(=N\OC1CCCCCCC1)c1csc(N)n1 . Its melting point was 117 to 118 °C

Entry under test: Oc1ccc(C2=C(c3ccc(OCCCCCI)cc3)c3ccc(O)cc3CCC2)cc1 . Its melting point was 202 to 204 °C

Entry under test: O=C1c2ccccc2C(=O)N1CC(=O)N1c2ccc(Cl)cc2N(Cc2ccccc2)C(=O)[C@H]2CCC[C@H]21 (relative stereo) . Its melting point was 241 to 243 °C
